Consider the following Kd data for UniProtKB P07949, collected from several reports.
Sequence (P07949 whole entry): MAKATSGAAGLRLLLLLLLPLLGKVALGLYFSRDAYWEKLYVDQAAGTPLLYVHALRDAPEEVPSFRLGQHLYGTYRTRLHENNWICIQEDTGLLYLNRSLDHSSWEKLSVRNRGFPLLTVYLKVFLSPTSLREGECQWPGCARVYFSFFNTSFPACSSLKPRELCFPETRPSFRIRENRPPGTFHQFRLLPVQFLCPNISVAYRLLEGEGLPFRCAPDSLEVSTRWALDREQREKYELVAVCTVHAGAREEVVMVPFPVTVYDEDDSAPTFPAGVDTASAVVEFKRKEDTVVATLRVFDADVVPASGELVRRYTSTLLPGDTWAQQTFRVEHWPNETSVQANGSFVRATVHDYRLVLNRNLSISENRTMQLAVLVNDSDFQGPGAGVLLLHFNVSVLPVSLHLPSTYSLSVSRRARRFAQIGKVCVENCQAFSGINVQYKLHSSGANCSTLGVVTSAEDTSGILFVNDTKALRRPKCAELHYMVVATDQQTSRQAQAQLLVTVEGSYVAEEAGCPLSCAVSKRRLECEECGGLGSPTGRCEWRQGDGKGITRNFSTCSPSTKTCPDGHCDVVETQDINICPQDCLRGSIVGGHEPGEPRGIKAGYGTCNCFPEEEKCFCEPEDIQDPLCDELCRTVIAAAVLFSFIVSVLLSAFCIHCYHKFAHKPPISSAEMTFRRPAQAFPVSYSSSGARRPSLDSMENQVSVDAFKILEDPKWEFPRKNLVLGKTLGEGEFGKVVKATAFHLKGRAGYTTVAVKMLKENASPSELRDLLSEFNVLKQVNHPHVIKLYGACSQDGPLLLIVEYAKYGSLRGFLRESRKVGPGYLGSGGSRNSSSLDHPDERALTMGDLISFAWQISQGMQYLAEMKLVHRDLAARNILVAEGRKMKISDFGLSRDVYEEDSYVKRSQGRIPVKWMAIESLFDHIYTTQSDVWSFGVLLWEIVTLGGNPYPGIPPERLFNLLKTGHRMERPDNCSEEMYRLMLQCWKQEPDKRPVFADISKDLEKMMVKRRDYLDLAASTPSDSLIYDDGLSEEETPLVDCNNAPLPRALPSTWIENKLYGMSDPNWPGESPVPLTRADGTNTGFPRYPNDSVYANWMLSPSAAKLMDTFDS
property name: Kd (nM)

chemical string	assay system	property name	test value
CC(C)(C)c1cc(NC(=O)Nc2ccc(NC(=O)c3cc4ccccc4cn3)cc2)no1	UniProtKB P07949	Kd	7.3
CC(C)(C)c1cc(NC(=O)Nc2ccc(-c3cc(-c4ccc(OCCN5CCOCC5)cc4)[nH]n3)cc2)no1	UniProtKB P07949	Kd	4.3
CN(C)CCOc1ccc(-c2cc(-c3ccc(NC(=O)Nc4cc(C(C)(C)C)on4)cc3)n[nH]2)cc1	UniProtKB P07949	Kd	3.2
CC(C)(C)c1cc(NC(=O)Nc2ccc(-c3cc(-c4ccc(OCCN5CCOCC5)cc4Br)[nH]n3)cc2)no1	UniProtKB P07949	Kd	15.5
CC(C)(C)c1cc(NC(=O)Nc2ccc(-c3cn(-c4ccc(OCCN5CCOCC5)cc4Cl)nn3)cc2)no1	UniProtKB P07949	Kd	26.5
Cn1cc(-c2cnn3c(N)c(Br)c([C@@H]4CCCNC4)nc23)cn1	UniProtKB P07949	Kd	2550
COc1cc(-c2cc(-c3ccc(NC(=O)Nc4cc(C(C)(C)C)on4)cc3)n[nH]2)ccc1OCCN1CCOCC1	UniProtKB P07949	Kd	6.1
CC(C)(C)c1cc(NC(=O)Nc2ccc(-c3cc(-c4cccc(OCCN5CCOCC5)c4)[nH]n3)cc2)no1	UniProtKB P07949	Kd	6
CC(C)(C)c1cc(NC(=O)Nc2ccc(-c3cc(-c4ccc(OCCN5CCOCC5)cc4F)[nH]n3)cc2)no1	UniProtKB P07949	Kd	8.3
CC(C)(C)c1cc(NC(=O)Nc2ccc(-c3n[nH]c(-c4ccc(OCCN5CCOCC5)cc4Cl)n3)cc2)no1	UniProtKB P07949	Kd	10.2
CC(C)(C)c1cc(NC(=O)Nc2ccc(-c3cc(-c4ccc(OCCCN5CCOCC5)cc4)[nH]n3)cc2)no1	UniProtKB P07949	Kd	4.1
